# targetOfAssay: T1, TAF3 PHD domain (for ITC)
# T1 chain: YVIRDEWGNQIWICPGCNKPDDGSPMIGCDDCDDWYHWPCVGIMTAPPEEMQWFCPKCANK
# testMethodNotes: ITC; H3G4 (5 mM) titrated to JARID1A (330 μM), H3G4 (3 mM) titrated to TAF3 (200 μM); 19 injections; Microcal Auto-iTC200; one set of sites model
# recordedConditions: both partners purified
Ends that are not written are not given here.
attributeMeasured: pKd
Give bare numbers, as −log10 of the molar value.

### Prompt For the binder ARTGQTARKS-OH (source: synthetic peptide (solid-phase synthesis, Fmoc chemistry, preparative HPLC)) [10-mer H3G4 histone peptide] , what pKd is on record?
### Response 4.44

Data provenance is paper PMC4673829.
